target: C-terminal His-tagged EED (His-EED) (UniProt O75530 1-441); assay: fluorescence polarization
Sequence (O75530 whole entry): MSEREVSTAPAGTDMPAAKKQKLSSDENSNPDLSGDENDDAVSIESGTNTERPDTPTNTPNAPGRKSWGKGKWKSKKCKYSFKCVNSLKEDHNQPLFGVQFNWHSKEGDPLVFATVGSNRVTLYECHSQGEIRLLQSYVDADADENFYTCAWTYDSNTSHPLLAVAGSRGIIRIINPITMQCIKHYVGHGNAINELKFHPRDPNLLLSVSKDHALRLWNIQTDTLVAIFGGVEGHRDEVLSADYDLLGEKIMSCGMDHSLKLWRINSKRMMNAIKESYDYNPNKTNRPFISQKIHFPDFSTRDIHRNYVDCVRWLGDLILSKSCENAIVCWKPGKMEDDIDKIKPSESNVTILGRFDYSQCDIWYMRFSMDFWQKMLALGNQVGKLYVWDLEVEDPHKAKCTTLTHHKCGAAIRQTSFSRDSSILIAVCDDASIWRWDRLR
Bridges are numbered along the chain shown (N, C = ends). Where no end group is shown, it is not given here. [ ]: non-standard residue; d: D form. The star is where a group is joined. FITC = O=C1OC2(c3ccc(O)cc3Oc3cc(O)ccc32)c2ccc(NC(=S)*)cc21; S5 = C=CCCC[C@](C)(N)C(=O)O; Nle = CCCC[C@H](N)C(=O)O
Recorded Kd by entry
Unit nM implied. Number only.

Using the record for {FITC}-S[Nle]FSSNR[S5]KIL[S5]RTEILNQEWKQRRIQPV (staple 8-12) [FITC-SAH-EZH2A(40-68)] , report its Kd.
333

Using the record for {FITC}-S[Nle]FSSNRQKILERT[S5]ILN[S5]EWKQRRIQPV (staple 15-19) [FITC-SAH-EZH2B(40-68)] , report its Kd.
264

Using the record for {FITC}-FSSNR[S5]KIL[S5]RTEILNQEWKQRRIQPV (staple 6-10) [FITC-SAH-EZH2A(42-68)] , report its Kd.
468

Using the record for {FITC}-FSSNRQKILERT[S5]ILN[S5]EWKQRRIQPV (staple 13-17) [FITC-SAH-EZH2B(42-68)] , report its Kd.
528
